Molecular target: human TAS1R2-WT/TAS1R3-L823F (Homo sapiens, UniProt Q7RTX0+Q8TE23, L823F)
Construct: expressed in transfected cells; host or cells: HEK293T stably expressing Gα16gust44
Sequence (Q8TE23 20-839): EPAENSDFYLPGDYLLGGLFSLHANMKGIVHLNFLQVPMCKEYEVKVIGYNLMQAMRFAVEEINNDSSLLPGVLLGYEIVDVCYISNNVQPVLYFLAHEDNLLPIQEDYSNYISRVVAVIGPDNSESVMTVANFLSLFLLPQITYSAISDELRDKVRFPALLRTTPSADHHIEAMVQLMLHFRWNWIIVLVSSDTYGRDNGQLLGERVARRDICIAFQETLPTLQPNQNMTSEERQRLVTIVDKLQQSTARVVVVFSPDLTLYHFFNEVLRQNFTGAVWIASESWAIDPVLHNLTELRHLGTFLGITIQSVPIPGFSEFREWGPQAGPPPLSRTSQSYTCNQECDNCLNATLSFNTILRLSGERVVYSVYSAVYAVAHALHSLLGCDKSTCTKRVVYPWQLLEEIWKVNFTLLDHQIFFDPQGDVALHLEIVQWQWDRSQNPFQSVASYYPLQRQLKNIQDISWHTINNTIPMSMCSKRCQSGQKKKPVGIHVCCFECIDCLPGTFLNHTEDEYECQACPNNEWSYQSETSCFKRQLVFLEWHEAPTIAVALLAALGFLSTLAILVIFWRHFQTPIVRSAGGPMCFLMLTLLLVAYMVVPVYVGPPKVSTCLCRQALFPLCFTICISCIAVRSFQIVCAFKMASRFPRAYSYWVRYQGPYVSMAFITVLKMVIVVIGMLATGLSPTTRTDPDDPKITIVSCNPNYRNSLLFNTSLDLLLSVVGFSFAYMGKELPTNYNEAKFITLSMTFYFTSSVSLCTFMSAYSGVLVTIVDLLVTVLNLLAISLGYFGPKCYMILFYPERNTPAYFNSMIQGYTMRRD
Sequence (Q7RTX0 21-852 L823F): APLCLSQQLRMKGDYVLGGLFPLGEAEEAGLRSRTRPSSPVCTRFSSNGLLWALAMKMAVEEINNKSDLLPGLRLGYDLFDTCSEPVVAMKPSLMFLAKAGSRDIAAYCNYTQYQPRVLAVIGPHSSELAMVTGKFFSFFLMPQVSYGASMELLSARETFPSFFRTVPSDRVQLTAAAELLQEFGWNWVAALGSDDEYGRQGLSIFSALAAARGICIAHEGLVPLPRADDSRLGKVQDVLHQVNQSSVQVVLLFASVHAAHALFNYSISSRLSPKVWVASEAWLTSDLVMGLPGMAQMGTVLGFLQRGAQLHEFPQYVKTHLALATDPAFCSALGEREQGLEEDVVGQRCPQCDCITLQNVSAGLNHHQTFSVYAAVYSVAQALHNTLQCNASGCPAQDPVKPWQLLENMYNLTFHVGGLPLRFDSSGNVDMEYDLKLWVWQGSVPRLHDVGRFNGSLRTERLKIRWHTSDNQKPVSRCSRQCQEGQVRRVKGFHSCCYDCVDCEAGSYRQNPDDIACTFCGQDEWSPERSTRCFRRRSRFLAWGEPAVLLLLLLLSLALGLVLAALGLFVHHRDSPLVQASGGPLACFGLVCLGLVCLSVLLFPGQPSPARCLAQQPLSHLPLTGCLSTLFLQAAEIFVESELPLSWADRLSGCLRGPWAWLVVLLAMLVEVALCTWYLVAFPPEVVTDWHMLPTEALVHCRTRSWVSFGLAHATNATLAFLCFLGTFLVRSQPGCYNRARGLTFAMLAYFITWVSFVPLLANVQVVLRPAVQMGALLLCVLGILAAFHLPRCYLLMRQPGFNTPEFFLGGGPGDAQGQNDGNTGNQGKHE
Experiment: Calcium mobilisation assay, TAS1R2-WT with TAS1R3 variant L823F
Assay type: cell-based
Conditions: maximal signal amplitude
property: Max ΔF/F0

Examples with their reported Max ΔF/F0 follow.
CC1=CC(=O)NS(=O)(=O)O1 = 0.33
COc1ccc(CCC(=O)c2c(O)cc(O[C@@H]3O[C@H](CO)[C@@H](O)[C@H](O)[C@H]3O[C@@H]3O[C@@H](C)[C@H](O)[C@@H](O)[C@H]3O)cc2O)cc1O [NHDC, neohesperidin dihydrochalcone] = 1.00

1. OC[C@H]1O[C@H](O[C@]2(CCl)O[C@H](CCl)[C@@H](O)[C@@H]2O)[C@H](O)[C@@H](O)[C@H]1Cl
2. C=C(C)[C@@H]1CC=C(/C=N/O)CC1
input: Kindly identify the item with the lower Max ΔF/F0 figure among these two: 1 and 2 I would appreciate it if you answered with the label of your choice.
output: 1
(1: 0.84, 2: 1.39)
